Observed IC50 for Sodium/glucose cotransporter 2 (Homo sapiens), reported per entry below.
State the answer as a number, implicitly in nM.

Request: I have this compound here, Cc1cccc(S[C@@H]2O[C@H](CO)[C@@H](O)[C@H](O)[C@H]2O)c1Cc1ccc(-c2ccc(F)cc2)s1 , and I need its recorded IC50.
Result: 2.5

Request: I have this compound here, CCOC(=O)OC[C@H]1O[C@@H](Oc2ccccc2Cc2ccc(OC)cc2)[C@H](O)[C@@H](O)[C@@H]1O [SERGLIFLOZIN ETABONATE] , and I need its recorded IC50.
Result: 7.5

Request: I have this compound here, COc1ccc(Cc2ccccc2O[C@@H]2O[C@H](CO)[C@@H](O)[C@H](O)[C@H]2O)cc1 , and I need its recorded IC50.
Result: 7.5

Request: I have this compound here, CCOc1ccc(Cc2c(Cl)cccc2S[C@@H]2O[C@H](CO)[C@@H](O)[C@H](O)[C@H]2O)cc1 , and I need its recorded IC50.
Result: 2.6

Request: I have this compound here, Cc1ccc([C@@H]2O[C@H](CO)[C@@H](O)[C@H](O)[C@H]2O)cc1Cc1ccc(-c2ccc(F)cc2)s1 [CANAGLIFLOZIN ANHYDROUS] , and I need its recorded IC50.
Result: 2.4

###

Test: Cmax in mouse at 3 mg/kg, po by LC analysis
Type: ADME, organism-based
Design: dose 3 mg/kg, route po
Conditions: in vivo
measured_property: Cmax (ng/mL)
State the answer as a number, implicitly in ng/mL.

Request: I have this compound here, OC[C@H]1O[C@@H](Sc2cccc(Cl)c2Cc2ccc(O[C@H]3CCOC3)cc2)[C@H](O)[C@@H](O)[C@@H]1O , and I need its recorded Cmax.
Result: 4200

###

Task for the reader: assign each of the following compounds its reported inhibition.
Molecular target: Sodium/glucose cotransporter 2 (Homo sapiens)
Sequence (whole entry): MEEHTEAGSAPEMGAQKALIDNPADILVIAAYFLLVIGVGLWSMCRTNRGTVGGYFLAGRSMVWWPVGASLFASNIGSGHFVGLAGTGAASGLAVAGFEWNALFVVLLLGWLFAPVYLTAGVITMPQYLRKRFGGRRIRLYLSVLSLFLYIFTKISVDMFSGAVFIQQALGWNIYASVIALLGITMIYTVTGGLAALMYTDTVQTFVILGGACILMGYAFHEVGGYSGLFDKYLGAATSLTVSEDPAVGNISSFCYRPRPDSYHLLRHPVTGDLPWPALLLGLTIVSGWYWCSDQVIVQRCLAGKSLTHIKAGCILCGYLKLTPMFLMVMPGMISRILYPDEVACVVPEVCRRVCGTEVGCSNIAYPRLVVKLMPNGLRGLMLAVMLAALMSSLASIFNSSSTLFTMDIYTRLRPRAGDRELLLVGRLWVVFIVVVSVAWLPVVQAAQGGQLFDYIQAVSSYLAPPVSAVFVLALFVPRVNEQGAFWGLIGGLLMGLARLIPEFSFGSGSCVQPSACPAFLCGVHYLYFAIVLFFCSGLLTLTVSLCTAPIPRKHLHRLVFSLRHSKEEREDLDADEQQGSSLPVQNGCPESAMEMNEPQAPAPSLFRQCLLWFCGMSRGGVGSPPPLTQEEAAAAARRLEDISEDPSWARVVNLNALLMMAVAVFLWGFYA
Assay: Inhibition of SGLT2 in HEK293 cells assessed as 2-NBDG uptake at 100 uM preincubated for 1 hr followed by 2-NBDG addition and measured after 1 hr relative to control
Assay type: cell-based
Details: time 2.0 hrs

Request: I have this compound here, OC[C@H]1O[C@@H](Sc2cccc(Cl)c2Cc2ccc(O[C@H]3CCOC3)cc2)[C@H](O)[C@@H](O)[C@@H]1O , and I need its recorded inhibition.
Result: > 90%

Request: I have this compound here, COc1ccc(Cc2ccccc2S[C@@H]2O[C@H](CO)[C@@H](O)[C@H](O)[C@H]2O)cc1 , and I need its recorded inhibition.
Result: > 90%

Request: I have this compound here, OC[C@H]1O[C@@H](Sc2ccc(Cl)c(Cc3ccc(O[C@H]4CCOC4)cc3)c2)[C@H](O)[C@@H](O)[C@@H]1O , and I need its recorded inhibition.
Result: 62%

Request: I have this compound here, Cc1ccc([C@@H]2O[C@H](CO)[C@@H](O)[C@H](O)[C@H]2O)cc1Cc1ccc(-c2ccc(F)cc2)s1 [CANAGLIFLOZIN ANHYDROUS] , and I need its recorded inhibition.
Result: > 90%

Request: I have this compound here, Cc1cccc(S[C@@H]2O[C@H](CO)[C@@H](O)[C@H](O)[C@H]2O)c1Cc1ccc(-c2ccc(F)cc2)s1 , and I need its recorded inhibition.
Result: > 90%

Request: I have this compound here, CCOc1ccc(Cc2c(Cl)cccc2S[C@@H]2O[C@H](CO)[C@@H](O)[C@H](O)[C@H]2O)cc1 , and I need its recorded inhibition.
Result: > 90%

Request: I have this compound here, Cc1ccc(S[C@@H]2O[C@H](CO)[C@@H](O)[C@H](O)[C@H]2O)cc1Cc1ccc(-c2ccc(F)cc2)s1 , and I need its recorded inhibition.
Result: 54%

Request: I have this compound here, CCOc1ccc(Cc2cc(S[C@@H]3O[C@H](CO)[C@@H](O)[C@H](O)[C@H]3O)ccc2Cl)cc1 , and I need its recorded inhibition.
Result: 57%

###

Tested on: HEK293
Assay: Cytotoxicity against HEK293 cells at 100 uM incubated for 24 hrs by MTT assay
Type: toxicity, cell-based
Settings: human, hek293, 24 h
measured_property: Activity

// below: answered compounds
>>> experimental_value("Cc1cccc(S[C@@H]2O[C@H](CO)[C@@H](O)[C@H](O)[C@H]2O)c1Cc1ccc(-c2ccc(F)cc2)s1")
"Non-Toxic"
>>> experimental_value("COc1ccc(Cc2ccccc2S[C@@H]2O[C@H](CO)[C@@H](O)[C@H](O)[C@H]2O)cc1")
"Non-Toxic"
>>> experimental_value("Cc1ccc(S[C@@H]2O[C@H](CO)[C@@H](O)[C@H](O)[C@H]2O)cc1Cc1ccc(-c2ccc(F)cc2)s1")
"Non-Toxic"
>>> experimental_value("OC[C@H]1O[C@@H](Sc2ccc(Cl)c(Cc3ccc(O[C@H]4CCOC4)cc3)c2)[C@H](O)[C@@H](O)[C@@H]1O")
"Non-Toxic"
>>> experimental_value("OC[C@H]1O[C@@H](Sc2cccc(Cl)c2Cc2ccc(O[C@H]3CCOC3)cc2)[C@H](O)[C@@H](O)[C@@H]1O")
"Non-Toxic"

Request: I have this compound here, CCOc1ccc(Cc2c(Cl)cccc2S[C@@H]2O[C@H](CO)[C@@H](O)[C@H](O)[C@H]2O)cc1 , and I need its recorded Activity.
Result: Non-Toxic

Request: I have this compound here, CCOc1ccc(Cc2cc(S[C@@H]3O[C@H](CO)[C@@H](O)[C@H](O)[C@H]3O)ccc2Cl)cc1 , and I need its recorded Activity.
Result: Non-Toxic

###

Experiment: AUCinfinity in mouse at 3 mg/kg, po by LC analysis
Assay type: ADME, organism-based
Parameters: dose 3 mg/kg, route po
Settings: in vivo
measured_property: AUC(0-inf) (ng·h/mL)
State the answer as a number, implicitly in ng·h/mL.

Request: I have this molecule here, OC[C@H]1O[C@@H](Sc2cccc(Cl)c2Cc2ccc(O[C@H]3CCOC3)cc2)[C@H](O)[C@@H](O)[C@@H]1O , and I need its recorded AUC(0-inf).
Result: 12800

###

Assay: Half life in mouse at 3 mg/kg, po by LC analysis
Assay type: ADME, organism-based
Settings: in vivo
measured_property: half-life

Request: I have this compound here, OC[C@H]1O[C@@H](Sc2cccc(Cl)c2Cc2ccc(O[C@H]3CCOC3)cc2)[C@H](O)[C@@H](O)[C@@H]1O , and I need its recorded half-life.
Result: 3.67 h

###

Test: Tmax in mouse at 3 mg/kg, po by LC analysis
Assay type: ADME, organism-based
Conditions: in vivo
measured_property: Tmax

Request: I have this compound here, OC[C@H]1O[C@@H](Sc2cccc(Cl)c2Cc2ccc(O[C@H]3CCOC3)cc2)[C@H](O)[C@@H](O)[C@@H]1O , and I need its recorded Tmax.
Result: 1 h
